system under test: MycC (Homo sapiens)
Construct: endogenous in cells; host or cells: L363
Sequence (P01106 whole entry): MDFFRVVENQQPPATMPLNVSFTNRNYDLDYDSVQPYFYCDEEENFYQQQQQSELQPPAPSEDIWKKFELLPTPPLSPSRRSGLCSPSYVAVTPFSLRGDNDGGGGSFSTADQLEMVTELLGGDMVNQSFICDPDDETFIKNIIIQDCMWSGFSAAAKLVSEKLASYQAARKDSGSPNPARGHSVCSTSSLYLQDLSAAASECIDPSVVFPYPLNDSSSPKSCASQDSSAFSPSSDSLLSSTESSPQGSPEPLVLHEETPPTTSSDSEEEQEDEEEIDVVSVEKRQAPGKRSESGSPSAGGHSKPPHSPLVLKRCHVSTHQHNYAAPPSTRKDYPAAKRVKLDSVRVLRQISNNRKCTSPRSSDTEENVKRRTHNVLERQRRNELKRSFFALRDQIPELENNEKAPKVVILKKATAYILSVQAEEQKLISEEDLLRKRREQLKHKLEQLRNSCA
protocol summary: Degradation of MycC protein in L363 cells, JESS/Western blot of lysates
Type: cell-based
study conditions: L-363, 24 h, L-363 cells, 24 h, 0.5 μM; read-out: % Degradation of MycC (L-363) 24 h, 0.5 μM
Procedure: For L363 cells (suspension), 1E6 cells were plated into each well of a 6 well plate. For SK-N-BE(2) cells (adherent), 5E5 cells were plated into each well of a 6 well dish. […] All compounds were diluted to 10 mM in DMSO. […] Once an appropriate lysate concentration and antibody concentration was determined, samples were screened in the JESS technology (Protein Simple, San Jose, CA—https://www.proteinsimple.com/jess.html). […]
parameter: Dmax at 0.5 µM

* CNC(C)C1CCCN(c2nccc(Nc3cc(C4CC4)[nH]n3)n2)C1 (single isomer, unassigned) | 20 to 49%
* CN1CC(C2CCN(c3nccc(Nc4cc(C5CC5)[nH]n4)n3)C2)C1 (centres unmarked) | < 20%
* CN1CC(C2CN(c3nccc(Nc4cc(C5CCCC5)[nH]n4)n3)C2)C1 | < 20%
* CN1CC2(C1)CN(c1nccc(Nc3cc(C4CCCC4)[nH]n3)n1)C2 | 20 to 49%
* CN1C[C@H]2CN(c3nccc(Nc4cc(C5CC5)[nH]n4)n3)C[C@H]21 | < 20%
* c1cc(Nc2cc(C3CC3)[nH]n2)nc(N2C[C@H]3CNC[C@@H]3C2)n1 (racemic) | 20 to 49%
* c1cc(Nc2cc(C3CCCC3)[nH]n2)nc(N2CC3(CCCNC3)C2)n1 | < 20%

Continue with the molecule presented below.
So for CN[C@@H]1CCN(c2nccc(Nc3cc(C4CC4)[nH]n3)n2)C1 , the logged Dmax at 0.5 µM turned out to be < 20%

----------
system under test: MycC (Homo sapiens)
Construct: endogenous in cells; host or cells: L363
protocol summary: Degradation of MycC protein in L363 cells, JESS/Western blot of lysates
Format: cell-based
study conditions: L-363, 24 h, read-out: % Degradation of MycC (L-363) 24 h, 1 μM
The reader will find reported Dmax at 1 µM values listed item by item below.

• O=C1c2ccccc2C(=O)N1CC12CC(CN(c3nccc(Nc4cc(C5CCCC5)[nH]n4)n3)C1)C2 = 80 to 100%

Entry N#CC1(CN)CCCN(c2nccc(Nc3cc(C4CC4)[nH]n3)n2)C1 (stereo not drawn) under MycC (Homo sapiens) had Dmax at 1 µM of 50 to 79%

Entry NCC1CN(c2nccc(Nc3cc(C4CC4)[nH]n3)n2)CC(F)(F)C1 (stereo not drawn) under MycC (Homo sapiens) had Dmax at 1 µM of 80 to 100%

Entry CC(C)NCC12CC(C1)N(c1nccc(Nc3cc(C4CCCC4)[nH]n3)n1)C2 under MycC (Homo sapiens) had Dmax at 1 µM of < 20%

Entry COCCNCC12CC(C1)N(c1nccc(Nc3cc(C4CCCC4)[nH]n3)n1)C2 under MycC (Homo sapiens) had Dmax at 1 µM of < 20%

Entry NCC12CC(C1)N(c1nccc(Nc3cc(C4CC4)[nH]n3)n1)C2 under MycC (Homo sapiens) had Dmax at 1 µM of 20 to 49%

----------
system under test: MycN (Homo sapiens, UniProt P04198)
Construct: endogenous in cells; host or cells: SK-N-BE(2)
Sequence (P04198 whole entry): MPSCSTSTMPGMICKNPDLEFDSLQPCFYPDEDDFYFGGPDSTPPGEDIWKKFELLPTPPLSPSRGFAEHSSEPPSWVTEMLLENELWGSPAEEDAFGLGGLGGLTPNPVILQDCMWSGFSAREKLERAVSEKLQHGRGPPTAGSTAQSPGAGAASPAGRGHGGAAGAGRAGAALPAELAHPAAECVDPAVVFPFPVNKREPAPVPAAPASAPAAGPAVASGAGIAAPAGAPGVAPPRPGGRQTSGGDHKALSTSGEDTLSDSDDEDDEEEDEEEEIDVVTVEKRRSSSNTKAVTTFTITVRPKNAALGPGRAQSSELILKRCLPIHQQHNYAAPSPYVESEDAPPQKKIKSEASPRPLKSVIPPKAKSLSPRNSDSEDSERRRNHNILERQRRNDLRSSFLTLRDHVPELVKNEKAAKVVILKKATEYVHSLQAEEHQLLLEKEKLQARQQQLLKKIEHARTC
protocol summary: Degradation of MycN protein in SK-N-BE(2) cells, JESS/Western blot of lysates
Type: cell-based
study conditions: SKNBE2, 24 h, SKNBE2 cells, 24 h, 6 μM; read-out: % Degradation of MycN (SKNBE2) 24 h, 6 μM
The reader will find reported Dmax at 6 µM values listed item by item below.

- CS(=O)(=O)CCNCC12CC(C1)N(c1nccc(Nc3cc(C4CCCC4)[nH]n3)n1)C2: 80 to 100%
- CNC[C@H]1CCCN(c2nccc(Nc3cc(C4CC4)[nH]n3)n2)C1: 80 to 100%
- CNC[C@@H]1CCN(c2nccc(Nc3cc(C4CC4)[nH]n3)n2)C1: 20 to 49%
- CN(C)[C@H]1CCN(c2nccc(Nc3cc(C4CC4)[nH]n3)n2)C1: < 20%
- CN1CC2(CCCN(c3nccc(Nc4cc(C5CC5)[nH]n4)n3)C2)C1: 50 to 79%

So for CNC[C@H]1CCN(c2nccc(Nc3cc(C4CC4)[nH]n3)n2)C1 , the logged Dmax at 6 µM turned out to be 80 to 100%

So for OC1CN(CC23CC(C2)N(c2nccc(Nc4cc(C5CCCC5)[nH]n4)n2)C3)C1 , the logged Dmax at 6 µM turned out to be 20 to 49%

So for CC(N)C1CCCN(c2nccc(Nc3cc(C4CC4)[nH]n3)n2)C1 (single isomer, unassigned) , the logged Dmax at 6 µM turned out to be 80 to 100%
